- Test system: L1210 leukemia ip in BDF1 mice, survival T/C
- experimentalDetails: NCI In Vivo Anticancer Drug Screen. Data for tumor model L1210 Leukemia (intraperitoneal) in B6D2F1 (BDF1) mice
- protocolConditions: endpoint: mean survival time; dose: 20.0 mg/kg/injection; schedule: Q01DX009 (ip); vehicle: saline; higher = longer survival
Toxic doses and inconclusive results are not listed.
Could you please report measured T/C for the items listed next?

Record T/C per entry; entries follow.
1. CC1(C)N=C(N)N=C(N)N1c1cccc(CC(=O)Nc2ccc(S(=O)(=O)F)cc2)c1
2. O=S(=O)([O-])Sn1c(-c2ccccc2)c[n+]2ccccc12
3. CCCCCCCCCCC[n+]1cccc(C#N)c1
4. O=c1nc2n(CCN(CCO)CCO)c3cc(Cl)c(Cl)cc3nc-2c(=O)[nH]1

Output line:
1: 110 % of control; 2: 120 % of control; 3: 95 % of control; 4: 104 % of control
